Test system: Mouse Hepatocyte
measurement_notes: Metabolic stability in mouse hepatocytes
Assay type: in vitro ADME
condition_label: mouse cryopreserved hepatocytes, 1 μM
result_type: Mouse Hepatocyte stability (Perc. remaining at 90 min) (Perc.)
Response body: numeric value in Perc., unit text excluded.

Example entries begin here.
> print(dat)
                                   molecule  meas.value
1  CNC(=O)c1cc2nc(C3COCCO3)cn2cc1NC(=O)c1cccc(C(C)(F)F)n1 (stereo not shown)       67.65
2  COc1cc2nc(C3COCCO3)cn2cc1NC(=O)c1cccn(C2CC2)c1=O (racemic)      103.95
3  O=C(Nc1cn2cc(C3CCOCC3)nc2c(F)c1OCC(F)F)c1cccn(C2CC2)c1=O        76.5

Next molecule, Mouse Hepatocyte stability (Perc. remaining at 90 min) to be filled in.
Kindly note the recorded Mouse Hepatocyte stability (Perc. remaining at 90 min) for CC(F)(F)c1cccc(C(=O)Nc2cn3cc(C4COCCO4)nc3cc2C(N)=O)n1 (stereo not shown) [Compound 13] , which is 72.8

* * *

Tested on: Mouse Hepatocyte
measurement_notes: Metabolic stability in mouse hepatocytes
Assay type: in vitro ADME
condition_label: mouse cryopreserved hepatocytes, 1 μM
# Mouse Hepatocyte stability (Perc. remaining at 90 min) listing for each entry below

Example entries begin here.
> print(dat)
                                   compound    meas.value
1  COc1cc2nc(C3COCCO3)cn2cc1NC(=O)c1cccc(C(F)(F)F)n1 (stereo not shown)  103.55 Perc.
2  CNC(=O)c1cc2nc(C3COCCO3)cn2cc1NC(=O)c1cccc(C(F)(F)F)n1 (stereo not shown)    73.3 Perc.
3  CC(F)(F)c1cccc(C(=O)Nc2cn3cc(C4COCCO4)nc3cc2C(N)=O)n1 (stereo not shown) [Compound 11]    80.6 Perc.

For CCOc1c(NC(=O)c2cccn(C3CC3)c2=O)cn2cc(C3CCOCC3)nc2c1F on Mouse Hepatocyte, measured Mouse Hepatocyte stability (Perc. remaining at 90 min) was 75.1 Perc.

* * *

assay_system: human IRAK-4 (Homo sapiens)
result_type: IC50

> print(dat)
                                   molecule   meas.value
1  COc1cc2nc(C3COCCO3)cn2cc1NC(=O)c1cccc(C(F)(F)F)n1 (stereo not shown)  0.1 to 5 nM

For COc1cc2nc(C3CCS(=O)(=O)CC3)cn2cc1NC(=O)c1cccn(C)c1=O on human IRAK-4 (Homo sapiens), measured IC50 was 10 to 50 nM

For CNC(=O)c1cc2nc(C3COCCO3)cn2cc1NC(=O)c1cccc(C(C)(F)F)n1 (stereo not shown) on human IRAK-4 (Homo sapiens), measured IC50 was 0.1 to 5 nM

For CCOc1c(NC(=O)c2cccn(C3CC3)c2=O)cn2cc(C3CCOCC3)nc2c1F on human IRAK-4 (Homo sapiens), measured IC50 was 5 to 10 nM

* * *

measurement_notes: Thermodynamic solubility
Format: physicochemical
condition_label: Fasted State Simulated Gastric Fluid (FaSSGF), 37 °C, fassgf or other biorelevant, thermodynamic from solid, Fasted State Simulated Gastric Fluid, read-out: Tsol FaSSGF
result_type: solubility thermodynamic at 24 h (µg/mL)
Response body: numeric value in µg/mL, unit text excluded.

Example entries begin here.
> print(dat)
                                   molecule  meas.value
1  COc1cc2nc(C3CCOCC3)cn2cc1NC(=O)c1cccc(C(F)(F)F)n1        1020
2  CC(F)(F)c1cccc(C(=O)Nc2cn3cc(C4COCCO4)nc3cc2C(N)=O)n1 (centres unmarked)         335
3  COc1cc2nc(C3CCOCC3)cn2cc1NC(=O)c1cccn(C2CC2)c1=O         947

Next molecule, solubility thermodynamic at 24 h to be filled in.
Kindly note the recorded solubility thermodynamic at 24 h for COc1cc2nc(C3COCCO3)cn2cc1NC(=O)c1cccn(C2CC2)c1=O (single isomer, unassigned) [Compound 8] , which is 1000

* * *

measurement_notes: Thermodynamic solubility
Type: physicochemical
condition_label: Fasted State Simulated Intestine Fluid (FaSSIF), 37 °C, fassif, thermodynamic from solid, Fasted State Simulated Intestine Fluid, read-out: Tsol FaSSIF
result_type: solubility thermodynamic at 24 h (µg/mL)
Response body: numeric value in µg/mL, unit text excluded.

Example entries begin here.
> print(dat)
                                   compound  units.text  meas.value
1  COc1cc2nc(C3COCCO3)cn2cc1NC(=O)c1cccn(C2CCC2)c1=O (stereo not shown)       µg/mL        43.9
2  COc1cc2nc(C3COCCO3)cn2cc1NC(=O)c1cccn(C2CC2)c1=O (racemic)       µg/mL        28.2
3  COc1cc2nc(C3COCCO3)cn2cc1NC(=O)c1cccn(C)c1=O (stereo not shown)       µg/mL        86.2
4  COc1cc2nc(C3CCOCC3)cn2cc1NC(=O)c1cccn(C2CC2)c1=O       µg/mL        1010
5  COc1cc2nc(C3CCOCC3)cn2cc1NC(=O)c1cccc(C(F)(F)F)n1       µg/mL        19.3
6  CC(F)(F)c1cccc(C(=O)Nc2cn3cc(C4COCCO4)nc3cc2C(N)=O)n1 (stereo not shown)       µg/mL        12.2

Kindly note the recorded solubility thermodynamic at 24 h for CNC(=O)c1cc2nc(C3COCCO3)cn2cc1NC(=O)c1cccc(C(F)(F)F)n1 (stereo not shown) , which is 6.42

* * *

System: Human Hepatocyte
measurement_notes: Metabolic stability in human hepatocytes
Type: in vitro ADME
condition_label: human cryopreserved hepatocytes, 1 μM
# Human Hepatocyte stability (Perc. remaining at 90 min) listing for each entry below
Response body: numeric value in Perc., unit text excluded.

> print(dat)
                                   molecule      assay.system  meas.value
1  CC(F)(F)c1cccc(C(=O)Nc2cn3cc(C4COCCO4)nc3cc2C(N)=O)n1 (stereo not drawn) [Compound 11]  Human Hepatocyte       99.15
2  CNC(=O)c1cc2nc(C3COCCO3)cn2cc1NC(=O)c1cccc(C(F)(F)F)n1 (stereo not drawn) [Compound 9]  Human Hepatocyte        92.1

Kindly note the recorded Human Hepatocyte stability (Perc. remaining at 90 min) for CNC(=O)c1cc2nc(C3COCCO3)cn2cc1NC(=O)c1cccc(C(C)(F)F)n1 (stereo not drawn) [Compound 14] , which is 100.05

Kindly note the recorded Human Hepatocyte stability (Perc. remaining at 90 min) for CC(F)(F)c1cccc(C(=O)Nc2cn3cc(C4COCCO4)nc3cc2C(N)=O)n1 (stereo not drawn) [Compound 13] , which is 93.85

Kindly note the recorded Human Hepatocyte stability (Perc. remaining at 90 min) for O=C(Nc1cn2cc(C3CCOCC3)nc2c(F)c1OCC(F)F)c1cccn(C2CC2)c1=O [Compound 19] , which is 56.6

Kindly note the recorded Human Hepatocyte stability (Perc. remaining at 90 min) for COc1cc2nc(C3COCCO3)cn2cc1NC(=O)c1cccn(C2CC2)c1=O (racemic) [Compound 1] , which is 101.5

Kindly note the recorded Human Hepatocyte stability (Perc. remaining at 90 min) for CCOc1c(NC(=O)c2cccn(C3CC3)c2=O)cn2cc(C3CCOCC3)nc2c1F [Compound 12] , which is 85.35

Kindly note the recorded Human Hepatocyte stability (Perc. remaining at 90 min) for COc1cc2nc(C3COCCO3)cn2cc1NC(=O)c1cccc(C(F)(F)F)n1 (stereo not drawn) [Compound 4] , which is 85.9

Kindly note the recorded Human Hepatocyte stability (Perc. remaining at 90 min) for COc1cc2nc(C3COCCO3)cn2cc1NC(=O)c1cccn(C)c1=O (stereo not drawn) [Compound 10] , which is 99.95

* * *

assay_system: human IRAK-4 (Homo sapiens)
Sequence (Q9NWZ3 1-460): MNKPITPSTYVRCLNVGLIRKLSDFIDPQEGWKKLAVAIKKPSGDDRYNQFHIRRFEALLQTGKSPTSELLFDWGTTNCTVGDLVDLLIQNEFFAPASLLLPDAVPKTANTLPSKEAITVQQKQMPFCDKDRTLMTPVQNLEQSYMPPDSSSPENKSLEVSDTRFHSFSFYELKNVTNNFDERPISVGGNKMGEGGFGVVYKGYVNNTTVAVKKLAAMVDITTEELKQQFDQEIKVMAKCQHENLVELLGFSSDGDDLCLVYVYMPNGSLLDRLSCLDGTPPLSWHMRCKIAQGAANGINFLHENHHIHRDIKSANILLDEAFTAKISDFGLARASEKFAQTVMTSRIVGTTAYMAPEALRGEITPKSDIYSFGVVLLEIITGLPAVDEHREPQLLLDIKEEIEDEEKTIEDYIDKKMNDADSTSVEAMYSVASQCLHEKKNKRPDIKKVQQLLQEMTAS
# IC50 listing for each entry below

Example entries begin here.
> print(dat)
                                   compound                 assay.system   meas.value
1  COc1cc2nc(C3COCCO3)cn2cc1NC(=O)c1cccn(C2CCC2)c1=O (centres unmarked)  human IRAK-4 (Homo sapiens)  10 to 50 nM
2  CC(F)(F)c1cccc(C(=O)Nc2cn3cc(C4COCCO4)nc3cc2C(N)=O)n1 (centres unmarked)  human IRAK-4 (Homo sapiens)   5 to 10 nM
3  O=C(Nc1cn2cc(C3CCOCC3)nc2cc1C(=O)NC1COC1)c1cccc(C(F)(F)F)n1  human IRAK-4 (Homo sapiens)  10 to 50 nM

For CNC(=O)c1cc2nc(C3COCCO3)cn2cc1NC(=O)c1cccc(C(F)(F)F)n1 (centres unmarked) on human IRAK-4 (Homo sapiens), measured IC50 was 5 to 10 nM
